experiment: Solubility of the compound by laser nephelometry; assay type: physicochemical

compoundSmiles	solubility kinetic
C#CCCCc1nc(=O)c2c(-c3cc(F)cc(F)c3)c(C(=O)c3ccc(OCCOCC)cc3)[nH]c2[nH]1	14 µM
C#CCCCc1nc(=O)c2c(-c3ccccc3)c(C(=O)c3ccc(OCCOCC)cc3)[nH]c2[nH]1	14 µM
C#CCCCc1nc(=O)c2c(-c3cccc(F)c3)c(C(=O)c3ccc(OCCOCC)cc3)[nH]c2[nH]1	14 µM

###

experiment: Therapeutic index, ratio of GI50 for human PNT1A cells to GI50 for human HeLa cells; format: toxicity; settings: PNT1A cells and HeLa cells, read-out: TI
selectivity ratio: recorded values
measurementKind: selectivity ratio

compoundSmiles	measuredResult
C#CCCCc1nc(=O)c2c(-c3cccc(F)c3)c(C(=O)c3ccc(OCCOCC)cc3)[nH]c2[nH]1	2
C#CCCCc1nc(=O)c2c(-c3ccccc3)c(C(=O)c3ccc(OCCOCC)cc3)[nH]c2[nH]1	2
C#CCCCc1nc(=O)c2c(-c3ccccc3)c(C(=O)c3ccc(N4CCOCC4)cc3)[nH]c2[nH]1	2

Data provenance: ChEMBL document CHEMBL5512693
